For each entry below, report its Bliss excess value.
# Test system: SU8686 (Pancreatic Carcinoma)
# experiment: Bliss excess, mean over the matrix (fraction); higher = more synergy;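 further: after 72 h of two-drug dosing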
Could you keep your reply to the number by itself?

Quick check: Bliss excess of COc1cccc(OCCCN)c1-c1cc(Nc2cnc(C#N)cn2)n[nH]1 [Prexasertib] + CCc1c2c(nc3ccc(O)cc13)-c1cc3c(c(=O)n1C2)COC(=O)[C@]3(O)CC [SN-38] (first compound max 1 µM, 7x7, partner max 0.3 µM) ?
0.02

Try this compound next: CN(CCO)CC[C@H](CSc1ccccc1)Nc1ccc(S(=O)(=O)NC(=O)c2ccc(N3CCC([C@@H](O)c4ccccc4-c4ccc(Cl)cc4)CC3)cc2)cc1S(=O)(=O)C(F)(F)F [AZD4320] + C=CCn1c(=O)c2cnc(Nc3ccc(N4CCN(C)CC4)cc3)nc2n1-c1cccc(C(C)(C)O)n1 [AZD1775] (first compound max 1 µM, partner max 1 µM)
-0.0598

----------
# System: Ca9-22 (Head and Neck Carcinoma)
# experiment: Bliss excess, mean over the matrix (fraction); higher = more synergy
For each entry below, report its Bliss excess value.
When you answer, write just the number.

Form field: reported Bliss excess of Cn1cnc2c(F)c(Nc3ccc(Br)cc3Cl)c(C(=O)NOCCO)cc21 [Selumetinib] + CCN(CCO)CCCOc1ccc2c(Nc3cc(CC(=O)Nc4cccc(F)c4)[nH]n3)ncnc2c1 [AZD2811] (first compound max 10 µM, 7x7, partner max 1 µM)
0.0241

Also, CN(C)CCCOc1ccc(-c2ccc3ncc4c(c3c2)n(C2CCOCC2)c(=O)n4C)cn1 [AZD0156] + O=C(c1cc(Cc2n[nH]c(=O)c3ccccc23)ccc1F)N1CCN(C(=O)C2CC2)CC1 [Olaparib] (first compound max 3 µM, partner max 3 µM) please.
0.132

Repeat with COc1cc2c(cc1OCCCCCOc1cc3c(cc1OC)C(=O)N1C=C(C)C[C@H]1C=N3)N=C[C@@H]1CC(C)=CN1C2=O [SG3199] + O=C(c1cc(Cc2n[nH]c(=O)c3ccccc23)ccc1F)N1CCN(C(=O)C2CC2)CC1 [Olaparib] (first compound max 0.001 µM, 7x7, partner max 10 µM)
-0.0113

Follow-up entry: C[C@@H](c1ccc2nccn2c1)n1nnc2ncc(-c3cnn(C)c3)nc21 [Savolitinib] + Cc1c2c(nn1C)CSCc1cc(n(C)n1)CSc1cc(c3ccccc3c1)OCCCc1c(C(=O)O)n(C)c3c-2c(Cl)ccc13 [AZD5991] (first compound max 1 µM, 7x7, partner max 1 µM)
-0.01

Now the same for COc1cccc(OCCCN)c1-c1cc(Nc2cnc(C#N)cn2)n[nH]1 [Prexasertib] + Cc1cc2ncnn2cc1Nc1ncc2c(n1)n(C1CCOCC1)c(=O)n2C [AZD7648] (first compound max 1 µM, 7x7, partner max 10 µM)
-0.0231

Follow-up entry: Cc1cc2ncnn2cc1Nc1ncc2c(n1)n(C1CCOCC1)c(=O)n2C [AZD7648] + C=CCn1c(=O)c2cnc(Nc3ccc(N4CCN(C)CC4)cc3)nc2n1-c1cccc(C(C)(C)O)n1 [AZD1775] (first compound max 10 µM, partner max 1 µM)
0.022

Record: NC1(C(=O)N[C@@H](CCO)c2ccc(Cl)cc2)CCN(c2ncnc3[nH]ccc23)CC1 [Capivasertib] + CC(=O)c1c(C)c2cnc(Nc3ccc(N4CCNCC4)cn3)nc2n(C2CCCC2)c1=O [Palbociclib] (first compound max 10 µM, 7x7, partner max 10 µM)
0.0171

What do you have for CC(=O)c1c(C)c2cnc(Nc3ccc(N4CCNCC4)cn3)nc2n(C2CCCC2)c1=O [Palbociclib] + CC1(C)CCC(CN2CCN(c3ccc(C(=O)NS(=O)(=O)c4ccc(NCC5CCOCC5)c([N+](=O)[O-])c4)c(Oc4cnc5[nH]ccc5c4)c3)CC2)=C(c2ccc(Cl)cc2)C1 [Venetoclax] (first compound max 10 µM, 7x7, partner max 1 µM) ?
-0.0044

What about Cc1c2c(nn1C)CSCc1cc(n(C)n1)CSc1cc(c3ccccc3c1)OCCCc1c(C(=O)O)n(C)c3c-2c(Cl)ccc13 [AZD5991] + C1CN(CCC1(C(=O)N[C@@H](CCO)C2=CC=C(C=C2)Cl)N)C3=NC=NC4=C3C=CN4 [Capivasertib] (first compound max 1 µM, 7x7, partner max 3 µM) ?
-0.0261

Please answer likewise for COc1cccc(OCCCN)c1-c1cc(Nc2cnc(C#N)cn2)n[nH]1 [Prexasertib] + CN(C)CCCOc1ccc(-c2ccc3ncc4c(c3c2)n(C2CCOCC2)c(=O)n4C)cn1 [AZD0156] (first compound max 1 µM, 7x7, partner max 1 µM)
-0.0123

Follow-up entry: CC(=O)c1c(C)c2cnc(Nc3ccc(N4CCNCC4)cn3)nc2n(C2CCCC2)c1=O [Palbociclib] + Cn1cnc2c(F)c(Nc3ccc(Br)cc3Cl)c(C(=O)NOCCO)cc21 [Selumetinib] (first compound max 10 µM, 7x7, partner max 10 µM)
0.0539

// next record COc1cccc(OCCCN)c1-c1cc(Nc2cnc(C#N)cn2)n[nH]1 [Prexasertib] + CCc1c2c(nc3ccc(O)cc13)-c1cc3c(c(=O)n1C2)COC(=O)[C@]3(O)CC [SN-38] (first compound max 1 µM, 7x7, partner max 0.3 µM)
0.0163

Quick one: CN(CCO)CC[C@H](CSc1ccccc1)Nc1ccc(S(=O)(=O)NC(=O)c2ccc(N3CCC([C@@H](O)c4ccccc4-c4ccc(Cl)cc4)CC3)cc2)cc1S(=O)(=O)C(F)(F)F [AZD4320] + CCN(CCO)CCCOc1ccc2c(Nc3cc(CC(=O)Nc4cccc(F)c4)[nH]n3)ncnc2c1 [AZD2811] (first compound max 1 µM, 7x7, partner max 1 µM)
0.0591

Record: CS(=O)(=O)CCNCc1ccc(-c2ccc3ncnc(Nc4ccc(OCc5cccc(F)c5)c(Cl)c4)c3c2)o1 [Lapatinib] + C[C@@H](Oc1cc(-c2cnn(C3CCNCC3)c2)cnc1N)c1c(Cl)ccc(F)c1Cl [Crizotinib] (first compound max 10 µM, 7x7, partner max 10 µM)
-0.0383
